System: C. elegans
Test: microbe, parasite or virus in culture
Details: Caenorhabditis elegans, 0 h, read-out: Percentage of motility inhibition 0 h, Table S2, C. elegans SS assay, 110 μM, 0 h, averages of 4 data points
Threshold rule: inhibition at 110 µM greater than or equal to 20% is true (1); below that, false (0).

Previously resolved entries follow.
>>> group("NC(=O)Cc1c[nH]c2ccccc12 [Indole‐3‐acetamide]")
"false (0)"
>>> group("O=c1c(O)c(-c2ccc(O)c(O)c2)oc2cc(O)cc(O)c12 [Quercetin]")
"true (1)"
>>> group("O=C(C1CCCCC1)N1CC(=O)N2CCc3ccccc3C2C1 (stereo not drawn) [Praziquantel]")
"true (1)"

Item O=[N+]([O-])C(Br)(CO)CO [Bronopol] with inhibition at 110 µM of 20% or above?
false (0)

Item Cc1cc(/C=C/C#N)cc(C)c1Nc1ccnc(Nc2ccc(C#N)cc2)n1 [Rilpivirine] with inhibition at 110 µM of 20% or above?
true (1)

Item C=C1C(=O)O[C@@]23[C@H]1CC[C@@H](C)[C@@H]2CC[C@@]1(C)O[C@@H]31 [Arteannuin B] with inhibition at 110 µM of 20% or above?
false (0)

Item Nc1ccc(S(=O)(=O)Nc2ccnn2-c2ccccc2)cc1 [Sulfaphenazole] with inhibition at 110 µM of 20% or above?
false (0)

Item CCC(=O)c1c(O)cc(O)cc1O [Flopropione] with inhibition at 110 µM of 20% or above?
true (1)

Item CCOc1ccc2nc3cc(N)ccc3c(N)c2c1 [Ethacridine lactate monohydrate, reference compound] with inhibition at 110 µM of 20% or above?
true (1)
